System: SNB-78 CNS
Assay: NCI tumour cell line growth inhibition, 48 h
Assign TGI to each entry below.

*Q* Looking for the measured TGI of CCCCC1=CSC(c2ccccc2)=C(c2ccccc2)S1 , can you help?
*A* > 100 µM

*Q* Dear colleague, I am looking for the recorded TGI of the following molecule: Nc1nc2c(N)cc(C(F)(F)F)cc2nc1-c1ccccc1
*A* > 100 µM

*Q* TGI for COC(=O)C(=O)C(C(=O)OC)C(=O)C(=O)Nc1c(C)cccc1C (stereo unspecified) ?
*A* > 100 µM

*Q* I would be grateful if you could share the reported TGI for OCC#CCNCl .
*A* > 100 µM

*Q* Form field: reported TGI of CN=c1ss/c(=N\C(=S)N(C)C)n1C
*A* > 100 µM

*Q* TGI for Cc1cc2ncn(-c3nc4ccccc4nc3C(C#N)S(C)(=O)=O)c2cc1C (stereo unspecified) ?
*A* > 100 µM

----------
Test system: NCI-H460 lung
Write down the outcome that applies. Available outcomes: TRUE = active, FALSE = inactive

*Q* In this assay, the call recorded for CCCCN(CCCC)C(=O)[C@H](CC)[C@@H]1CC[C@@H](C)[C@@H]([C@H](C)[C@@H](O)[C@@H](C)C(=O)[C@H](CC)C2O[C@]3(C=C[C@@H](O)[C@]4(CC[C@@](C)([C@H]5CC[C@](O)(CC)[C@H](C)O5)O4)O3)[C@H](C)C[C@@H]2C)O1 (stereo partly drawn) was what?
*A* FALSE

*Q* Kindly provide the recorded test outcome for the following compound: CN(C)c1ccc(/C=C\c2ccnc3ccccc23)cc1
*A* FALSE

*Q* What classification did C=C1C[C@H]2C=Nc3cc(OCCCOc4cc5c(cc4OC)C(=O)N4CC(=C)C[C@H]4C=N5)c(OC)cc3C(=O)N2C1 end up with in this test?
*A* TRUE

----------
Test system: EKVX NSCLC
Test: NCI tumour cell line growth inhibition, 48 h
Answer each item with its documented TGI.

*Q* # input compound: CC1(C)OC(=O)C(C)(C)C(=O)O1 ; wanted: its TGI
*A* > 100 µM

*Q* Request the reported TGI associated with Cc1nc(N)nc(N)c1CCCCc1ccc(N)cc1
*A* 27.3 µM

*Q* I'd like to know its TGI. The compound in question is CN(C)c1ccc(/C=C\c2ccnc3ccccc23)cc1
*A* > 37.9 µM

*Q* So what's the measured TGI for this one? CC(=O)Nc1[nH]n(C)c(=O)c1-c1nnc(C)s1
*A* > 100 µM

*Q* Entry N#C/C(=C\c1ccncc1)c1csc2ccccc12 : reported TGI = ?
*A* > 100 µM

*Q* Which TGI is listed for COC(=O)C(CC(C)C)NC(=O)C(NC(=O)c1ccc(-c2ccc(Cl)cc2Cl)o1)C(C)C (stereo not given) ?
*A* 62.6 µM

*Q* Which TGI reading was recorded for the compound Nc1nc2c(N)cc(C(F)(F)F)cc2nc1-c1ccccc1 ?
*A* > 100 µM

*Q* Please report the recorded TGI for Cc1cc2ncn(-c3nc4ccccc4nc3C(C#N)S(C)(=O)=O)c2cc1C (stereo not given) .
*A* > 100 µM

*Q* I have this compound here, C[C@@H](CC(O)C(O)C(C)(C)O)C1CCC23CC12CCC1[C@@]2(C)CCC(O)C(C)(C)C2CC(OC2OC(CO)C(O)C(O)C2O)[C@]13C (stereo not given in full) , and I need its recorded TGI.
*A* > 10 µM

*Q* Request the reported TGI associated with NS(=O)(=O)c1ccc(NC(=O)N/N=C/c2ccccc2O)cc1
*A* > 100 µM

*Q* Please give the measured TGI for this compound: COC(=O)C1CC2C=CC=CC(=O)C2(C)C1 (stereo not given)
*A* > 100 µM

*Q* Bench note: what TGI did COc1nc(N=P(c2ccccc2)(c2ccccc2)c2ccccc2)cc(=O)n1C show?
*A* > 100 µM

*Q* If you can, please state the reported TGI value of Cc1ccc(C(=O)CC2(O)C(=O)Nc3c(C)cc(Cl)cc32)cc1 (stereo not given) .
*A* > 100 µM

*Q* Find the recorded TGI belonging to O=[N+]([O-])C(=C/c1ccccc1)/C(=C\c1ccccc1)[N+](=O)[O-] and report it.
*A* 34 µM

*Q* Quick one: TGI of Cn1cc(/C=C\[N+](=O)[O-])c2ccccc21 ?
*A* > 100 µM

*Q* Query (compound): COc1cccc2c1-c1nc(N)c3c(OC)cccc3c1C2=O ; field requested: TGI
*A* > 100 µM

*Q* What value of TGI has been recorded for this entry: O=C1CC2OCC=C3CN4CCC56c7ccccc7N1C5C2C3CC46O (stereo not given)
*A* > 100 µM

*Q* What measured TGI goes with NC(=O)c1ccc2c(c1)-c1nc-2nc2[n-]c(nc3nc(nc4[n-]c(n1)c1ccc(C(N)=O)cc41)-c1ccc(C(N)=O)cc1-3)c1ccc(C(N)=O)cc21.[Co+2] ?
*A* > 50 µM

*Q* Sample O=C(NN1C(=O)C(Cl)C1c1ccccc1O)c1ccccc1O (stereo not given) — what was its TGI?
*A* > 100 µM

*Q* // TGI lookup, key: Cn1c(=O)c2[nH]c(N=O)nc2n(C)c1=O
*A* > 100 µM

*Q* Consider the compound Cc1cc(=O)oc2ccc(OC/C=C3\CCC(=O)O3)cc12 and give its measured TGI.
*A* 45.6 µM

*Q* Query: TGI; subject: CC(C)[C@@H]1CC[C@@H](C)C[C@H]1OC(=O)c1c2n(c3ccccc13)C[C@H]1OC(C)(C)O[C@@H]21
*A* 73.8 µM

*Q* Suppose we examine the compound C/C(=N\O)c1ccc2ccc3ccccc3c2c1 ; what TGI value has been reported?
*A* > 100 µM

*Q* What measured TGI goes with C=C1C(=O)O[C@H]2[C@H]1CC/C(COC(=O)c1cc(OC)c(OC)c(OC)c1)=C\CC[C@@]1(C)O[C@@H]21 ?
*A* 4.5 µM

*Q* For COc1ccc(C2=Nc3c(nc(OC)[nH]c3=O)NC(c3ccccc3)C2)cc1 (stereo not given) , what is its reported TGI?
*A* > 100 µM

*Q* # lookup: TGI of C[N+](C)(CCCCCC[N+](C)(C)CCCN1C(=O)c2cccc3cccc(c23)C1=O)CCCN1C(=O)c2cccc3cccc(c23)C1=O
*A* > 100 µM

*Q* Sample COc1cc(/C=C2\C(=O)N(Cc3ccc(Cl)cc3)c3ccccc32)cc(OC)c1OC — what was its TGI?
*A* 34.6 µM

*Q* Name the recorded TGI for C[C@@]1([C@H](OC(=O)c2ccccc2)C(N)=O)CO1 .
*A* 62.4 µM

*Q* Quick check: TGI of COc1cc([N+](=O)[O-])c(OC)cc1-c1nc2sc(C)c(C)n2c1/C(N)=N/C(=N)N ?
*A* > 100 µM

*Q* Please give the measured TGI for this compound: COC(=O)C(=O)C(C(=O)OC)C(=O)C(=O)Nc1c(C)cccc1C (stereo not given)
*A* > 100 µM

----------
Test system: SR leukemia
Experiment: NCI tumour cell line growth inhibition, 48 h; in the data active = GI50 below about 0.43 µM; inactive = the rest
Use one of these outcomes when replying: Y = active, N = inactive

*Q* Give the logged outcome of this assay for the following compound: CO[C@H]1C[C@@H]2CC[C@@H](C)[C@@](O)(O2)C(=O)C(=O)N2CCCC[C@H]2C(=O)O[C@H]([C@H](C)C[C@@H]2CC[C@@H](OC(=O)C(C)(CO)CO)[C@H](OC)C2)CC(=O)[C@H](C)/C=C(\C)[C@@H](O)[C@@H](OC)C(=O)[C@H](C)C[C@H](C)\C=C/C=C/C=C/1C
*A* Y

*Q* Hey, what did the test say about CCOC(=O)[C@@H](C)C[C@H](Cc1ccccc1)NC(=O)c1csc([C@@H](C[C@H](C(C)C)N(C)C(=O)[C@@H](NC(=O)[C@H]2CCCCN2C)C(C)(C)CC)OC(C)=O)n1 ?
*A* Y

*Q* Which outcome did this test record for the compound COc1cc2c(c(OC)c1OC)-c1ccc(NN(C(=O)c3ccccc3)C(=O)c3ccccc3)c(=O)cc1[C@@H](NC(C)=O)CC2 (tested in a mixture with another compound) ?
*A* N

*Q* What classification did NS(=O)(=O)c1ccc(Nc2cc(-c3ccc(O)c(F)c3)[nH]n2)cc1 end up with in this test?
*A* N

*Q* Which outcome was entered for the compound O=C1/C(=C/c2ccc(Cl)c(Cl)c2)CN(C(=O)C(Cl)Cl)C/C1=C\c1ccc(Cl)c(Cl)c1 in this test?
*A* Y

*Q* Each compound tested received a call. Report the one for O=C1NC(=NCc2ccccc2Cl)S/C1=C\c1ccc2ncccc2c1 .
*A* N

*Q* Hi, sorry to bother you, what did the test record for CC(C)(C)c1cc(C(=O)Nc2ccccc2C(=O)NCCN)cc(C(C)(C)C)c1 ?
*A* N

----------
System: ACHN renal
Test: NCI tumour cell line growth inhibition, 48 h
readout: GI50

*Q* Look up GI50 for this compound: CC(=O)Nc1ccc(C(=O)CCl)cc1
*A* 1.8 µM

*Q* # query: GI50 of entry CO[C@H]1C[C@@H]2CC[C@@H](C)[C@@](O)(O2)C(=O)C(=O)N2CCCC[C@H]2C(=O)O[C@H]([C@H](C)C[C@@H]2CC[C@@H](OC(=O)C(C)(CO)CO)[C@H](OC)C2)CC(=O)[C@H](C)/C=C(\C)[C@@H](O)[C@@H](OC)C(=O)[C@H](C)C[C@H](C)\C=C/C=C/C=C/1C
*A* > 9.24 µM

*Q* Return reported GI50; argument: CSC1=NC(=Nc2c(C)cccc2C)C2(CCC(C(C)(C)C)CC2)N1c1ccc(Cl)cc1 (stereo unspecified)
*A* 8.4 µM

*Q* Field request: GI50 | item: CN=C(N)c1ccc(N=C(N)c2ccc(-c3ccc(C(N)=Nc4ccc(C(N)=NC)cc4)cc3)cc2)cc1
*A* > 100 µM

*Q* // lookup GI50 for CC1CC2C3CCC4=CC(=O)C=CC4(C)C3(F)C(O)CC2(C)C1(O)C(=O)COP(=O)(O)O (stereo unspecified)
*A* > 500 µM

*Q* Which GI50 value belongs to Clc1nccc2c(-c3csc(-c4c[nH]c5ccc(Br)cc45)n3)c[nH]c12 ?
*A* 2.02 µM
